- assayTarget: CK1d (Homo sapiens)
- Construct: purchased ReactionBiology
- Sequence (P48730 whole entry): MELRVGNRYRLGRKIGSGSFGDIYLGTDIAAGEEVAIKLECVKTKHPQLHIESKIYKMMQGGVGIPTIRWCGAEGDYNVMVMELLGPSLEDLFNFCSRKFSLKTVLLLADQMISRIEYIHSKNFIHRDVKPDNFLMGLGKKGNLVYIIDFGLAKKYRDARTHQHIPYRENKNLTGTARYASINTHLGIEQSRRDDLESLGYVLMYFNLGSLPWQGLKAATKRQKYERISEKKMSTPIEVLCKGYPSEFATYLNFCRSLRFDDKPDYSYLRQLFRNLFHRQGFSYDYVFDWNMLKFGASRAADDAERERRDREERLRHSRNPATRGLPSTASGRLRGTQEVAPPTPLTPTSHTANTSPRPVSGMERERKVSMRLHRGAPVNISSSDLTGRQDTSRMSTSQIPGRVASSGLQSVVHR
- experiment: Kinase activity test (ReactionBiology), % enzyme activity relative to DMSO
- Format: biochemical
- measurementSetup: CK1d; 1 uM; replicate Data 1
measurementKind: % Enzyme Activity (relative to DMSO controls), Data 1

Examples with their reported % Enzyme Activity (relative to DMSO controls), Data 1 follow.
{"columns": ["compound", "result"],
 "data": [
  ["CC(=O)Nc1ccc(O)cc1", "106.63%"],
  ["Cc1ccc(Cl)c(Nc2ccccc2C(=O)O)c1Cl [Meclofenamate]", "125.84%"],
  ["CCCCC[C@H](O)/C=C/[C@H]1[C@H](O)CC(=O)[C@@H]1CCCCCCC(=O)O", "100.59%"],
  ["CCC1=C(C)CN(C(=O)NCCc2ccc(S(=O)(=O)NC(=O)N[C@H]3CC[C@H](C)CC3)cc2)C1=O [Glimepiride]", "107.91%"]
]}

Field: next compound
Memo: CC(C)CN(C[C@@H](O)[C@H](Cc1ccccc1)NC(=O)O[C@H]1CO[C@H]2OCC[C@H]21)S(=O)(=O)c1ccc(N)cc1 , reported % Enzyme Activity (relative to DMSO controls), Data 1: 116.81%
